Molecular target: T1, His-tagged CEACAM1 (human, UniProt P13688 35-428)
T1 construct: 45 kDa SPR analyte; also called CEACAM1-HIS; CEACAM1 analyte
T1 sequence: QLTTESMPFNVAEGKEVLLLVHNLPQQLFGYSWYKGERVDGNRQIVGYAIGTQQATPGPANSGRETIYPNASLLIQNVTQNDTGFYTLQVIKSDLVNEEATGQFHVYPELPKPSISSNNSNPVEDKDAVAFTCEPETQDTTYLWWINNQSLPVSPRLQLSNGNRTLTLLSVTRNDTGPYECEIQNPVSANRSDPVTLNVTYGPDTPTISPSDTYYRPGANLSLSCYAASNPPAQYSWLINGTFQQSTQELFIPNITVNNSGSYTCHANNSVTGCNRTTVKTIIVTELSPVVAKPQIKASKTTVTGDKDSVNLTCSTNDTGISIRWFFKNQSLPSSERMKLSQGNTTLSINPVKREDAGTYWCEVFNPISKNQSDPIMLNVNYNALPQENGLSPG
Experiment: SPR single-cycle, supernatant IgG captured
testReadout: pKd
Formally, pKd is defined as -log10 of the concentration c, with c in mol/L.

Would you mind telling me what pKd value was observed for VH1/CP08E05 (antibody, IgG4, V domains shown, IgG4 (S241P), kappa; also called Parent VH/CP08E05) VH: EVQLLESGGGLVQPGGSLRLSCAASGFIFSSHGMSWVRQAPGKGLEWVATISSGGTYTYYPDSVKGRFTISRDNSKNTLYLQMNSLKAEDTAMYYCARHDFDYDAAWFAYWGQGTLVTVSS VL: EIVLTQSPATLSLSPGERATLSCRANSAVSYMYWYQQKPGQAPRPWIYLTSNRATGVPARFSGSGSGTDYTLTISSLEPEDFAVYYCQQWTTNPPTFGQGTKLEIK ?
6.64

Would you mind telling me what pKd value was observed for CP09E05/CP08D02 (antibody, IgG4, V domains shown, IgG4 (S241P), kappa) VH: EVQLLESGGGLVQPGGSLRLSCAASGFIFSSHGMSWVRQAPGKGLEWVATISSGGTYTYYPDSVKGRFTISRDNSKNTLYLQMNSLKAEDTAMYYCARHGFDYDAAWFAYWGQGTLVTVSS VL: EIVLTQSPATLSLSPGERATLSCRANSAVSYMYWYQQKPGQAPRPWIYLTSNRATGVPARFSGSGSGTDYTLTISSLEPEDFAVYYCQQWTSFPPTFGQGTKLEIK ?
6.48

Would you mind telling me what pKd value was observed for CP09B03/CP08E01 (antibody, IgG4, V domains shown, IgG4 (S241P), kappa) VH: EVQLLESGGGLVQPGGSLRLSCAASGFTFNAHAISWVRQAPGKGLEWVATISSGGTYTYYPDSVKGRFTISRDNSKNTLYLQMNSLKAEDTAMYYCARHDFDYDAAWFAYWGQGTLVTVSS VL: EIVLTQSPATLSLSPGERATLSCRANSAVSYMYWYQQKPGQAPRPWIYLTSNRATGVPARFSGSGSGTDYTLTISSLEPEDFAVYYCQQWTTFPPTFGQGTKLEIK ?
6.60
